Source listed as ChEMBL document CHEMBL2010671.

# Test system: Escherichia coli
# assay.summary: Antimicrobial activity against ciprofloxacin-, SXT-sensitive Escherichia coli ATCC 25922
# Assay type: functional
result.type: MIC (µg/mL)
Provide only the numeric value, understood in µg/mL.

Observe how each entry below is paired with its result.
{"columns": ["smiles.entry", "scale.unit", "MIC"],
 "data": [
  ["Nc1ncc(COCc2cn(-c3nc4c(cc3F)c(=O)c(C(=O)O)cn4C3CC3)nn2)c(N)n1", "µg/mL", 0.5],
  ["Nc1ncc(Cn2cc(CN3CCN(c4nc5c(cc4F)c(=O)c(C(=O)O)cn5C4CC4)CC3)nn2)c(N)n1", "µg/mL", 4]
]}

For the next question, use this compound.
Q: # query: MIC of entry "[N-]=[N+]=Nc1nc2c(cc1F)c(=O)c(C(=O)O)cn2C1CC1"
Result: 2
